Measured ki/Ki by item
Target: GBA (Homo sapiens (Human), UniProt P04062, R534H)
Sequence (P04062 40-536 R534H): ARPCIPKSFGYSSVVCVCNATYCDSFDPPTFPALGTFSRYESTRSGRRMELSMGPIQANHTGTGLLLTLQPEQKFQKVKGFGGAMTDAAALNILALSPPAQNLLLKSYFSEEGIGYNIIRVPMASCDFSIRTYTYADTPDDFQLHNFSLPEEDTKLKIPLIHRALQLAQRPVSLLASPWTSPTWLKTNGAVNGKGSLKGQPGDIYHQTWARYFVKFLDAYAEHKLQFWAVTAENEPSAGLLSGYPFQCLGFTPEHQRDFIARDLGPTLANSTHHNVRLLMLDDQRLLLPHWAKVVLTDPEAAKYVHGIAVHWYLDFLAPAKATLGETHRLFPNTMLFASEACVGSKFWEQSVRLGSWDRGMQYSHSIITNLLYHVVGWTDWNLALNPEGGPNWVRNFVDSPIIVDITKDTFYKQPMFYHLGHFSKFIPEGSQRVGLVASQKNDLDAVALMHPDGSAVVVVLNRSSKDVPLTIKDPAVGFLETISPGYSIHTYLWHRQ
Experiment: Continuous substrate release assay for inhibition constants
Type: biochemical
Settings: relative rate constant
Write the answer as a number in M⁻¹ s⁻¹, unit excluded.

Worked set:
COc1ccc(C2=[N+]3C(=C(CCCCc4cn(C[C@@H]5[C@@H](O)[C@H](O)[C@@H](O)[C@@H]6O[C@H]56)nn4)c4ccc(-c5ccc(OC)cc5)n4[B-]3(F)F)C=C2)cc1    418300
O[C@H]1[C@H](O)[C@@H](O)[C@@H]2O[C@@H]2[C@@H]1O [CBE, Conduritol B-epoxide, reference compound]    67
OC[C@@H]1[C@@H](O)[C@H](O)[C@@H](O)[C@@H]2O[C@H]12 [Cyclophellitol 3, cyclophellitol, reference compound]    8570
CC1=CC(C)=[N+]2C1=C(CCCCc1cn(C[C@@H]3[C@@H](O)[C@H](O)[C@@H](O)[C@@H]4O[C@H]34)nn1)c1c(C)cc(C)n1[B-]2(F)F    296000

Turning to the following compound.
Consider the compound shown here: [N-]=[N+]=NC[C@@H]1[C@@H](O)[C@H](O)[C@@H](O)[C@@H]2O[C@H]12 What is its recorded ki/Ki?
13200

---

Biological target: GBA (Homo sapiens (Human), UniProt P04062, R534H)
Experiment: Continuous substrate release assay for inhibition constants
Assay type: biochemical
Conditions: rate constant, reported with s.e.m.
Measured ki by item
Write the answer as a number in min⁻¹, unit excluded.

Worked set:
[N-]=[N+]=NC[C@@H]1[C@@H](O)[C@H](O)[C@@H](O)[C@@H]2O[C@H]12 [KY170]    0.035
O[C@H]1[C@H](O)[C@@H](O)[C@@H]2O[C@@H]2[C@@H]1O [CBE, Conduritol B-epoxide, reference compound]    0.217
OC[C@@H]1[C@@H](O)[C@H](O)[C@@H](O)[C@@H]2O[C@H]12 [Cyclophellitol 3, cyclophellitol, reference compound]    0.078
COc1ccc(C2=[N+]3C(=C(CCCCc4cn(C[C@@H]5[C@@H](O)[C@H](O)[C@@H](O)[C@@H]6O[C@H]56)nn4)c4ccc(-c5ccc(OC)cc5)n4[B-]3(F)F)C=C2)cc1 [MDW941]    0.208

Turning to the following compound.
Please state recorded ki (tested on GBA (Homo sapiens (Human), UniProt P04062, R534H)) of CC1=CC(C)=[N+]2C1=C(CCCCc1cn(C[C@@H]3[C@@H](O)[C@H](O)[C@@H](O)[C@@H]4O[C@H]34)nn1)c1c(C)cc(C)n1[B-]2(F)F [MDW933]
0.127

---

Measured IC50 by item
Molecular target: GBA (Homo sapiens (Human), UniProt P04062, R534H)
Test: GBA enzyme activity assay with 4-methylumbelliferyl β-D-glucopyranoside, inhibitor preincubated 30 min (apparent IC50)
Format: biochemical
Conditions: recombinant GBA, in vitro; read-out: apparent half-maximal inhibitory concentration (IC50)
Answer as a quantity: numeral, then unit.

CC1=CC(C)=[N+]2C1=C(CCCCc1cn(C[C@H]3C=C[C@H](O)[C@@H](O)[C@@H]3O)nn1)c1c(C)cc(C)n1[B-]2(F)F [MDW1064]    41 µM
[N-]=[N+]=NC[C@@H]1[C@@H](O)[C@H](O)[C@@H](O)[C@@H]2O[C@H]12 [KY170]    0.12 µM
OC[C@@H]1[C@@H](O)[C@H](O)[C@@H](O)[C@@H]2O[C@H]12 [Cyclophellitol 3, cyclophellitol, reference compound]    0.15 µM

Turning to the following molecule.
Consider the molecule shown here: COc1ccc(C2=[N+]3C(=C(CCCCc4cn(C[C@H]5C=C[C@H](O)[C@@H](O)[C@@H]5O)nn4)c4ccc(-c5ccc(OC)cc5)n4[B-]3(F)F)C=C2)cc1 [MDW1065] What is its recorded IC50?
95 µM

---

Target: GBA (Homo sapiens (Human), UniProt P04062, R534H)
Assay: GBA enzyme activity assay with 4-methylumbelliferyl β-D-glucopyranoside, inhibitor preincubated 30 min (apparent IC50)
Format: biochemical
Conditions: rec. GBA1, 30 min, 37 C., pH 5.2 + Tch, Tr; read-out: Apparent IC50 (nM) rec. GBA1: 30 min, 37 C., pH 5.2 + Tch, Tr
Measured IC50 by item
Answer as a quantity: numeral, then unit.

[N-]=[N+]=NC[C@@H]1[C@@H](O)[C@H](O)[C@@H](O)[C@@H]2O[C@H]12    150 nM

Consider the compound shown here: O[C@H]1[C@H](O)[C@@H](O)[C@@H]2O[C@@H]2[C@@H]1O [CBE, Conduritol B-epoxide, reference compound] What is its recorded IC50?
12000 nM

Consider the compound shown here: CC1=CC(C)=[N+]2C1=C(CCCCc1cn(C[C@@H]3[C@@H](O)[C@H](O)[C@@H](O)[C@@H]4O[C@H]34)nn1)c1c(C)cc(C)n1[B-]2(F)F What is its recorded IC50?
2 nM
